test: folding stability dG unfold (combined trypsin and chymotrypsin); higher = more stable
Kindly state folding stability dG unfold for each of the entries shown.

Lookup: I have this sequence here, DVVIDIDELKKAIEKAKPGEVLELTVKVKDKATGKEYTVRVTVTVNPDGKTVTVTVVNEETGEVIETITLPS [r1_165_TrROS_Hall] , and I need its recorded folding stability dG unfold.
Found: > 6 kcal/mol

Lookup: Note, next up: SAGGSAGGVSKVLEVRPAPGSGTYTVRTLREDPATGTTTEEVLTIPTSRPEVVDSLPPDATVELSAGGSAGG [r6_979_JUSTAS]
Found: < -1 kcal/mol

Next:
Lookup: I have this sequence here, SAGGSAGGSMKVRLLIGEEEVEKAIAEGIPKEVMKPEKEKIPSSTDPRFAGNPEPVLLYYIGESAGGSAGGS [r12_78_JUSTAS] , and I need its recorded folding stability dG unfold.
Found: < -1 kcal/mol

###

experiment: folding stability dG unfold from trypsin proteolysis; higher = more stable
Kindly state folding stability dG unfold for each of the entries shown.
Please give the number followed by its unit.

The following sequences have reported results that may help.
Lookup: I have this sequence here, SAGGSAGGSEKIIEELKKKFPGLKIDKIEITVKKKKITIELKPPPKVYLTKEELEKKGYKIEKSAGGSAGGS [r12_3_TrROS_Hall] , and I need its recorded folding stability dG unfold.
Found: 1.33 kcal/mol

Lookup: Note, next up: SAMVVSEELSPEGTRTTTTFNPATGTSTTTTTPIPEEPPLPPVSIPTSLSPEEREALREELEAAGVPVVLGS [r1_242_JUSTAS]
Found: 1.22 kcal/mol

Lookup: Note, next up: SVTVDEIAEWFANSFQQHGMKDVKVDVTVEPDPKNGRVRVDVQIRMTYPNPDGEKHRFEMTIPVEIPPNDSA [r9_440_TrROS]
Found: 1.93 kcal/mol

Lookup: Note, next up: KTITIIIPMTPEQIEELAKALAEKLGLSEEEVEVVKVEKIKNEDGELYVKITIKLKETGKEITIIVPLKDLS [r1_21_TrROS_Hall]
Found: 1.76 kcal/mol

Lookup: Note, next up: SAGGETVEIEVEMSPEEVREAIKKAAEALDAEVVEVKYDKETKKVTITVKKGATEEELRKALEEALKSAGGS [r8_338_TrROS_Hall]
Found: 2.47 kcal/mol

Could I get folding stability dG unfold for every one of these entries?
1. SAGGSAGGAPQGSTSSLTDPSTGLRYASTNPPGTSSSFTFPPSVSPEEVAARLRAQGVAGLNLSSAGGSAGG [r6_83_JUSTAS]
2. SAGGMKIKVTVEVTFPDGTVRTFPVPDATSEEEVRAILAERGFGDLADVPIRITEREPVPAVPPEELLSAGG [r13_493_JUSTAS]
3. KVEIKVEIEVKYNKETGKKVVKIRITVKEGSKEEAEKLAAELAKELFGPNVKVTVEYDKETDEITVTLVFPS [r1_273_TrROS_Hall]

Found:
1. -0.81 kcal/mol
2. 1.68 kcal/mol
3. 3.57 kcal/mol

Could I get folding stability dG unfold for every one of these entries?
1. SAGLKIVEDIRKKLEEEGYDVKVKYEIKPEPKDGKYIITIEVTIKDEKGNEVPIGKETIVIPLEEYEKSSAG [r5_413_JUSTAS]
2. SAGKRMPVEEIANELAKEFPPGQTREVPIRNEDGGEWITLTVYHPNGKPVWKITIRPDGEIEVEWVPLSAGG [r19_0_TrROS]
3. SAGGSAGGSAAISIDLPPNSVLNISIPVTEPGGKPYTVKISVYSTPLPSNSYELNIKVTIVSAGGSAGGSAG [r3_347_JUSTAS]
4. SAGGSAGGSAGKKKKKPKPIVLVIKVKTKEEAEKLAEKLKELGFKVEIVEKKDGYLVIKLSAGGSAGGSAGG [r17_323_TrROS_Hall]
5. SAGGSAGGMVTFTVEYESDPALLEKLKEELPGVEILEVKREGPKKTITITIKVPSEEKAKKFLSSAGGSAGG [r6_334_JUSTAS]
6. SAGGSAGGSSKYIKFIIPANSPEAIEKAKELAEFIKKKYPGIKKIEVKYNPEKGYLEVIAEVESAGGSAGGS [r12_248_TrMRF]

Found:
1: 1.27 kcal/mol; 2: 0.889 kcal/mol; 3: 3.56 kcal/mol; 4: 2.11 kcal/mol; 5: 0.704 kcal/mol; 6: 4.08 kcal/mol

Could I get folding stability dG unfold for every one of these entries?
1. SAGTIRLNGLELEVDIEWWPEHGYITINVTITWPNGRTMMMQIIIKVKPVKPPPPPPPKYDPDNGKPKASAG [r5_816_TrROS]
2. SAGGPISKKKIVTAPVSYDPATGKYTITLTYPDSTYTIPSDLSDLEEALKRAKEKLEKETGIPVETVLGSAG [r5_251_JUSTAS]
3. SAGGSAGGSNLPAGQEIWFPIEIRIEMEMPVRDNGEPIWRMRMTMEHTIMLSIKVKPASPEDASAGGSAGGS [r20_14_TrROS]
4. MKKVKVTITITVPEEDKEKVKELIEKLKEAVPNVKVTSVEFDEKTGKITIVVEMTEEELEELKKALKEALES [r1_443_TrROS_Hall]
5. SAGGSAGGSAGGIAEALKAAFPDEGVEVVSIHPDGKVEVRVDGTPELREKVEKAVKELLSSAGGSAGGSAGG [r11_418_TrMRF]
6. SAGGGMVERTETVTVPLSDVLAGRPPTPEAIAAARFPDTAEVTLETTEVPEDDTVTVTLTVRVPPELLSAGG [r13_862_JUSTAS]

Found:
1: 2.97 kcal/mol; 2: 0.576 kcal/mol; 3: 3.75 kcal/mol; 4: 2.78 kcal/mol; 5: 1.08 kcal/mol; 6: 0.472 kcal/mol
